The measurements presented in this section are drawn from the supplement of paper PMC8728848.

target: Fuc(a1-2)Gal(b1-3)GlcNAc6S
protocol text: glycan array binding signal (z-score within array); higher = stronger binding
test context: glycan notation: IUPAC condensed, linker removed
Shown is part of a subset that was picked to be rich in the strongest signals.
endpoint name: glycan array binding signal (z-score)

[
  {
    "binder": "OS9-MRH (Homo sapiens), Q13438 (protein) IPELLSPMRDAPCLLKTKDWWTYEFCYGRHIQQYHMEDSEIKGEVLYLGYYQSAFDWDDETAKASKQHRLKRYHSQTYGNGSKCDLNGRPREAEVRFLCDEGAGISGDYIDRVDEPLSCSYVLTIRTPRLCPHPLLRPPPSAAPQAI",
    "endpoint name": "glycan array binding signal (z-score)",
    "value observed": 3.15
  },
  {
    "binder": "CLECb-Precomplexed (Mus musculus), P43025 (protein) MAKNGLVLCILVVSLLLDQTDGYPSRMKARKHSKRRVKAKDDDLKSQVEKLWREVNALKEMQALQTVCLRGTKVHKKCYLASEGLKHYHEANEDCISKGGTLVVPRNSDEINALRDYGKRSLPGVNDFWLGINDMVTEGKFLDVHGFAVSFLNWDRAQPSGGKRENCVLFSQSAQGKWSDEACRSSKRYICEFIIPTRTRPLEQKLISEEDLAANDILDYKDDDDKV",
    "endpoint name": "glycan array binding signal (z-score)",
    "value observed": -0.588
  }
]
